growth inhibition: recorded values
- Experimental protocol: NCI Yeast Anticancer Drug Screen. Data for the CLN2oe strain (AID 163);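 note: 0% = growth of vehicle-only control cultures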
- Measurement context: S. cerevisiae CLN2oe strain, at 11.0 µM, stronger effect = higher value
This is part of a sample that, as a whole, favours compounds with a hit. Of some 79,000 tested, about 15% had one in any assay. Residues, ends and D or L forms follow the SMILES beside them. *: point of attachment. CH2Cl = ClC*

[
  {
    "Compound": "OCCNCCOc1ccc(/C(=C(/Cl)c2ccccc2)c2ccccc2)cc1",
    "Unit of measure": "%",
    "growth inhibition": 25
  },
  {
    "Compound": "CC(=O)NC(CC(C)C)C(=O)NC(Cc1ccccc1)C(=O)CCl (stereo not drawn) (Ac-Leu-Phe-CH2Cl; configuration not given here)",
    "Unit of measure": "%",
    "growth inhibition": -8
  },
  {
    "Compound": "Cc1c(-c2ccccc2)[nH]c2ccccc12",
    "Unit of measure": "%",
    "growth inhibition": 1
  },
  {
    "Compound": "O=C1CC(=O)N(C2CCCCC2)C(=O)N1c1ccccc1S(=O)(=O)Oc1ccccc1",
    "Unit of measure": "%",
    "growth inhibition": 7
  },
  {
    "Compound": "CC1(C)C(C=O)=CCC1CC(N)=O (stereo not given)",
    "Unit of measure": "%",
    "growth inhibition": -1
  }
]

From: PubChem BioAssay (NCI)
